test system: Fusarium graminearum spores; type: cell-based
Where no end group is shown, it is not given here.
Reported lowest concentration at which activity was observed in the zone inhibition assay, Fgr by item:

substance	result
Bm-moricin: Synthetic B. mori moricin (residues 25 to 66 of SEQ ID NO:16) (AKIPIKAIKTVGKAVGKGLRAINIASTANDVFNFLKPKKRKH; listed as Bombyx mori) [reference compound]	10 µM

Input line: Item Gm-moricinC2: Moricin-like peptide from Galleria mellonella, SEQ ID NO:53, synthesised (KVPIGAIKKGGKIIKKGLGVLGAAGTAHEVYNHVRNRQ; listed as Galleria mellonella) : provide lowest concentration at which activity was observed in the zone inhibition assay, Fgr
Output line: 1 µM

Input line: Read the entry Gm-moricinB: Antifungal moricin-like peptide from Galleria mellonella, SEQ ID NO:5 (GGQIIGKALRGINIASTAHDIISQFKPKKKKNH; listed as Galleria mellonella) and write its reported lowest concentration at which activity was observed in the zone inhibition assay, Fgr.
Output line: 10 µM

Input line: Please report the measured lowest concentration at which activity was observed in the zone inhibition assay, Fgr for KVNVNAIKKGGKAIGKGFKVISAASTAHDVYEHIKNRRH [Gm-moricinA]
Output line: 1 µM
